We begin with a simple list: items and their reported fraction ligated.
B1: minF1; a variant is named by its letters at N, in order (parent)
chain: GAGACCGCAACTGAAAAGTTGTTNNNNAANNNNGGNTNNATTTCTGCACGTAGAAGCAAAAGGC

Variants of: B1
Assay: fraction ligated after 30 min (ligated reads / total reads); higher = more ligase activity
Details: with F1*subA RNA substrate (template-directed ligation), 42 °C
Keep the answer to the number alone.

Consider the reported fraction ligated for these variants:
>>> measured_result("ATCGGGATGTG")
0.0285
>>> measured_result("ATCAAGATGTG A28G")
0.0128
>>> measured_result("TCAATGGTGTA T23A")
0.00153

Data point: "ACGATGAGTGA" ; fraction ligated = 0.0021

Data point: ATGAGATGTGA A29T ; fraction ligated = 0.00278

Data point: "ATGATGGTTGA" ; fraction ligated = 0.00283

Data point: TAGAGGTGTGA T23A ; fraction ligated = 0.00196

Data point: ACAGAGGAGTG G34T ; fraction ligated = 0.00588

Data point: TCAGTGGAGTG G34T ; fraction ligated = 0.0219
